Each recorded value in this set is attributed to patent US8309579B2.

# test system: gelatinase A (MMP-2) (Homo sapiens)
# Sequence (P08253 110-660): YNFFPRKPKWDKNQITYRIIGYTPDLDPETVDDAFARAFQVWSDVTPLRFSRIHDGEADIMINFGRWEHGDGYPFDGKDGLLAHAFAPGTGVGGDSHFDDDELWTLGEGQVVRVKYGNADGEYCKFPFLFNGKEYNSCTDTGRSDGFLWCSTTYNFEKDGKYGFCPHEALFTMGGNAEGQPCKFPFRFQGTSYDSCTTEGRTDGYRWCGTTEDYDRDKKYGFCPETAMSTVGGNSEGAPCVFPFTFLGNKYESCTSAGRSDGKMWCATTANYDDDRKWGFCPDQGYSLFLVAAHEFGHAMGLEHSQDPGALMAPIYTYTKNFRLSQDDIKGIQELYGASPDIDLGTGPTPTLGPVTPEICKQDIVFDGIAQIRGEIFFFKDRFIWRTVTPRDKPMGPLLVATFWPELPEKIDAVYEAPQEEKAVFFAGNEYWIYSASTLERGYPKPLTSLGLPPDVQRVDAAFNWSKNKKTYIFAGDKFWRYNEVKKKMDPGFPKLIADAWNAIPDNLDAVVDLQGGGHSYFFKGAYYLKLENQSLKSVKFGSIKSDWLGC
test readout: IC50 (nM)
Give just the numeric value; nM need not be written.

Enquiry: Observed IC50 on gelatinase A (MMP-2) (Homo sapiens) for CC(C)C[C@@H](CN(O)C=O)C(=O)N1CCN(c2ccc(-c3ccccc3)cc2)CC1 [Example 2] , please.
Return: 9
